- test_protocol: Elimination experiment: diPAP mixture by IV injection, analytes in whole blood
- Assay type: in vivo, Sprague-Dawley rats
- measurement_conditions: male, Sprague-Dawley, rat, in vivo; diPAP IV dose, about 15 mg/kg each; whole blood; mean ± SE; read-out: Half-life (converted)
measured_parameter: Half-life (days)
Use days as the unit, but write only the number.

Request the reported Half-life associated with O=C(O)C(F)(F)C(F)(F)C(F)(F)C(F)(F)C(F)(F)C(F)(F)C(F)(F)F [PFOA, perfluorooctanoic acid]
23

---

- test_protocol: Elimination experiment: monoPAP mixture by IV injection, analytes in whole blood
- Assay type: in vivo, Sprague-Dawley rats
- measurement_conditions: male, Sprague-Dawley, rat, in vivo, 15 mg/kg; monoPAP IV dose; whole blood; read-out: Tmax (converted)
Measured Tmax accompanies every entry in the list below.

O=C(O)C(F)(F)C(F)(F)C(F)(F)C(F)(F)C(F)(F)C(F)(F)C(F)(F)F : 96 h

Request the reported Tmax associated with O=C(O)C(F)(F)C(F)(F)C(F)(F)C(F)(F)C(F)(F)C(F)(F)F
24 h
